# target.of.assay: BRPF1 bromodomain (Homo sapiens, UniProt P55201)
# experiment: Isothermal titration calorimetry
# Assay type: binding
Ends that are not written are not given here.
outcome.measure: pKd
Scale: pKd equals -log10([C]), with [C] in mol/L.

Requested read-out: pKd. Entry: SGRGK(Ac)QGGKARA-NH2 [H2AK5ac (1-12)]
4.31

====

# target.of.assay: BRPF1 bromodomain (Homo sapiens, UniProt P55201)
# Sequence (P55201 629-742): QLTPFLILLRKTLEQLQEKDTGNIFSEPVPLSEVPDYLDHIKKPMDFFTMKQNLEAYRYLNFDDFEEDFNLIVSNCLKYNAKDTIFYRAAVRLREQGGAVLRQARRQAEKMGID
# experiment: NMR titration
# Type: binding
Ends that are not written are not given here.
outcome.measure: pKd
Scale: pKd equals -log10([C]), with [C] in mol/L.

Entry SGRGK(Ac)QGGKARA-NH2 [H2AK5ac (1-12)] , system BRPF1 bromodomain (Homo sapiens, UniProt P55201): what pKd was measured?
4.24
